test: folding enthalpy; higher = less favourable; fluorescence melt of hairpins on a sequencing array, two-state fit; details: sodium 0.088 M
Please use t whenever folding enthalpy is not below -30 kcal/mol, and f whenever it is.

input: Check this sequence for folding enthalpy at or above -30 kcal/mol: GTATGCGCGAAAGCGTAC (((..(((....))))))
output: t

input: Decide: is the reported value of folding enthalpy for GCGTTTTTACGC ((((....)))) equal to or greater than -30 kcal/mol?
output: t

input: Test whether the sequence GATCTGACTACAGATC ((((((....)))))) records folding enthalpy of -30 kcal/mol or higher.
output: f

input: Please tell me: is the sequence GCCCCCGAAAGGGTCGGC ((((((....)))..))) at or over -30 kcal/mol in terms of folding enthalpy?
output: t

input: hey, is folding enthalpy for this one >= -30 kcal/mol? GGAGCCACGAAAGTGTCC (((..(((....))))))
output: t
